B1: Zinc finger homeobox protein 3, residues 2147 to 2202; numbered along this chain, Q15911 (parent)
chain: RPRTRITDDQLRVLRQYFDINNSPSEEQIKEMADKSGLPQKVIKHWFRNTLFKERQ

Variants of: B1
assay.procedure: abundance fitness (aPCA) (normalised: wild type 0, dead -1); higher = more abundant; growth selection in yeast, the domain comes from the species named
condition.label: Homo sapiens
Classify as follows. Reported abundance fitness greater than or equal to -0.1: rule met. Reported abundance fitness below: rule not met.

Worked cases, answers included:
                        biopolymer_sequence   group_label
0  RPRTRITDDQLRVLRQYFDINNSPSEEQIKEMADKSILPQKVIKHWFRNTLFKERQ  rule not met
1  RPRTRITDDQLRVLRQYFDINNSPSEEQIKEMADKSGLPQKVIKHWFQNTLFKERQ      rule met
2  RPRTRITDDQLRVLRQYFDINNSPSEEQIKEMADKSGLPQKVIKHWFRNTLFKPRQ  rule not met

Query: // inclusive: abundance fitness at least -0.1? input: "RPRTRITDDQLRVLRQYFDINNSPSEEQIKEMADKSGLPQKIIKHWFRNTLFKERQ"
Result: rule met

Query: Is abundance fitness at least -0.1? Consider "RPRTRITDDQLRVQRQYFDINNSPSEEQIKEMADKSGLPQKVIKHWFRNTLFKERQ"
Result: rule not met

Query: Could you please find out whether "RPRTRITDDQLRVLRQYFDINNSPSEEWIKEMADKSGLPQKVIKHWFRNTLFKERQ" has abundance fitness that meets -0.1 or exceeds it?
Result: rule not met

Query: Given "RPRTRITDDQLRVLRQYADINNSPSEEQIKEMADKSGLPQKVIKHWFRNTLFKERQ" , state whether its abundance fitness is at least -0.1.
Result: rule not met
